target: human EP4 receptor (Homo sapiens); construct: expressed in transfected cells; assay: Binding ability to human EP receptors ([3H]PGE2 displacement), EP4; conditions: membranes expressing human EP4; [3H]PGE2 1 nM; Cheng-Prusoff; read-out: pKi (M) EP4 (converted)
Sequence (P35408 whole entry): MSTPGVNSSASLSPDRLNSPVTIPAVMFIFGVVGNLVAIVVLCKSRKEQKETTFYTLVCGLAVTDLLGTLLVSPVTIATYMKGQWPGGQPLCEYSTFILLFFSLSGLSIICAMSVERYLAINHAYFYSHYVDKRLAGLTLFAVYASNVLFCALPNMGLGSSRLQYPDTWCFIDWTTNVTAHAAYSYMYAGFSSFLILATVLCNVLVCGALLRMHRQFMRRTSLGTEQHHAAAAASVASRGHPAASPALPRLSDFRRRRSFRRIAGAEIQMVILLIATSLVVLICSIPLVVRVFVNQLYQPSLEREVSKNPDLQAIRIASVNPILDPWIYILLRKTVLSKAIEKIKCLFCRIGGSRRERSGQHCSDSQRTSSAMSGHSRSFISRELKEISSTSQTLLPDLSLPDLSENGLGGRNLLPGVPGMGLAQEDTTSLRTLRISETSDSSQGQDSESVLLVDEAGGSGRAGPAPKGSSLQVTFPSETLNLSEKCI
result-type: Ki

[
  {
    "structure-as-smiles": "O=C(O)COc1cccc(NC(=O)c2cc(-c3ccccc3)ccc2F)c1",
    "Ki": "> 1e-05 M"
  }
]

Request: Look up and report Ki, with human EP4 receptor (Homo sapiens) as system, for O=C(Nc1cccc(/C=C/c2nnn[nH]2)c1)c1ccc(-c2cccc(Cl)c2)o1
Result: > 1e-05 M

Request: Look up and report Ki, with human EP4 receptor (Homo sapiens) as system, for O=C(Nc1cccc(CCO)c1)c1ccc(-c2ccccc2)o1
Result: > 1e-05 M

Request: Look up and report Ki, with human EP4 receptor (Homo sapiens) as system, for O=C(O)COc1cccc(NC(=O)c2cccc(-c3ccc(Cl)cc3)n2)c1
Result: > 1e-05 M

Request: Look up and report Ki, with human EP4 receptor (Homo sapiens) as system, for O=C(O)/C=C/c1cccc(NC(=O)c2ccc(-c3ccc(Cl)cc3)o2)c1
Result: > 1e-05 M

* * *

target: human EP2 prostanoid receptors (Homo sapiens, UniProt P43116); construct: expressed in transfected cells; host or cells: HEK-293; test: Agonist activity at recombinant human EP2 prostanoid receptors (cAMP in HEK-293 clones); type: cell-based; conditions: functional classification at EP2
Sequence (P43116 whole entry): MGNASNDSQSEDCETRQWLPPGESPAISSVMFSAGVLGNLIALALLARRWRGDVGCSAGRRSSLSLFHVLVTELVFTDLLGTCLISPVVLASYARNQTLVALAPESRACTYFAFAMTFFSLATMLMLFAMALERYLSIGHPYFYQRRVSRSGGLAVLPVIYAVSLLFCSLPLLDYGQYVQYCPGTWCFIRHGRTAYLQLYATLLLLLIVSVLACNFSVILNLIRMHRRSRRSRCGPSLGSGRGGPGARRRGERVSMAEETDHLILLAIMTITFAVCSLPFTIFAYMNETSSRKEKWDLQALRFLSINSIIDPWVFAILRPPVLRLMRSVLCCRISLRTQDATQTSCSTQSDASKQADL

[
  {
    "structure-as-smiles": "O=C(O)Cc1cccc(NC(=O)c2cccc(-c3cccc(F)c3)n2)c1",
    "activity (EP2 part)": "EP2 Agonist"
  },
  {
    "structure-as-smiles": "O=C(O)COc1cccc(NC(=O)c2cc(-c3cccc(F)c3)ccc2F)c1",
    "activity (EP2 part)": "EP2 Agonist"
  },
  {
    "structure-as-smiles": "O=C(Nc1cccc(Cc2nnn[nH]2)c1)c1ccc(-c2cc(Cl)cc(Cl)c2)o1",
    "activity (EP2 part)": "EP2 Agonist"
  }
]

* * *

target: human EP2 receptor (Homo sapiens, UniProt P43116); construct: expressed in transfected cells; assay: Binding ability to human EP receptors ([3H]PGE2 displacement), EP2; details: membranes expressing human EP2; [3H]PGE2 3 nM; Cheng-Prusoff; read-out: pKi (M) EP2 (converted)
Sequence (P43116 whole entry): as the sequence (P43116 whole entry) above
result-type: Ki

Look over these answered cases.
[
  {
    "structure-as-smiles": "O=C(O)Cc1ccc(NC(=O)c2ccc(-c3ccccc3)o2)cc1",
    "result": "< 1e-05 M"
  },
  {
    "structure-as-smiles": "O=C(Nc1cccc(Cc2nnn[nH]2)c1)c1cccc(-c2ccc(Cl)cc2)n1",
    "result": "< 1e-07 M"
  },
  {
    "structure-as-smiles": "O=C(O)/C=C/c1cccc(NC(=O)c2ccc(-c3cccc(OCc4ccccc4)c3)o2)c1",
    "result": "< 1e-07 M"
  },
  {
    "structure-as-smiles": "NC(=O)Cc1cccc(NC(=O)c2ccc(-c3ccccc3)o2)c1",
    "result": "< 1e-05 M"
  }
]

Request: Check the records and state Ki for O=C(O)COc1cccc(NC(=O)c2cc(-c3cc(Cl)cc(Cl)c3)ccc2F)c1
Result: < 1e-07 M

Request: Check the records and state Ki for O=C(Nc1cccc(-c2nnn[nH]2)c1)c1ccc(-c2ccccc2)o1
Result: < 1e-06 M

Request: Check the records and state Ki for O=C(O)CCc1cccc(NC(=O)c2ccc(-c3ccccc3)o2)c1
Result: < 1e-06 M

Request: Check the records and state Ki for O=C(O)Cc1cccc(NC(=O)c2ccc(-c3ccc4[nH]ccc4c3)o2)c1
Result: < 1e-06 M

Request: Check the records and state Ki for O=C(O)Cc1cccc(NC(=O)c2ccc(-c3ccc(F)cc3)o2)c1
Result: < 1e-06 M

Request: Check the records and state Ki for O=C(O)/C=C/c1cccc(NC(=O)c2cc(-c3cccc(F)c3)ccc2F)c1
Result: < 1e-07 M

Request: Check the records and state Ki for O=C(O)c1cc2cc(NC(=O)c3ccc(-c4cccc(Cl)c4)o3)ccc2[nH]1
Result: < 1e-06 M

Request: Check the records and state Ki for O=C(O)CCc1cccc(NC(=O)c2ccc(-c3cccc(Cl)c3)o2)c1
Result: < 1e-07 M

Request: Check the records and state Ki for O=C(O)/C=C/c1cccc(NC(=O)c2ccc(-c3ccc(F)cc3)o2)c1
Result: < 1e-07 M

Request: Check the records and state Ki for O=C(O)Cc1cccc(NC(=O)c2ccc(-c3cccc4ccccc34)o2)c1
Result: < 1e-06 M

Request: Check the records and state Ki for O=C(Nc1ccc2[nH]c(C(=O)O)cc2c1)c1cccc(-c2cc(Cl)cc(Cl)c2)n1
Result: < 1e-06 M

Request: Check the records and state Ki for O=C(O)Cc1cccc(NC(=O)c2ccc(-c3cccc(C(F)(F)F)c3)o2)c1
Result: < 1e-06 M

Request: Check the records and state Ki for O=C(O)Cc1cccc(NC(=O)c2ccc(-c3ccc(OC(F)(F)F)cc3)o2)c1
Result: < 1e-05 M

Request: Check the records and state Ki for O=C(O)/C=C/c1cccc(NC(=O)c2cc(-c3ccc(F)cc3)ccc2F)c1
Result: < 1e-07 M

* * *

target: human EP4 prostanoid receptors (Homo sapiens, UniProt P35408); construct: expressed in transfected cells; host or cells: HEK-293; assay: Antagonist activity at EP4 prostanoid receptors (PGE2-stimulated cAMP in HEK-293 clones); format: cell-based; details: functional classification at EP4, second line of the activity cell
result-type: activity (EP4 part)

Look over these answered cases.
[
  {
    "structure-as-smiles": "O=C(O)/C=C/c1cccc(NC(=O)c2ccc(-c3cc(Cl)cc(Cl)c3)o2)c1",
    "tested-system": "human EP4 prostanoid receptors (Homo sapiens, UniProt P35408)",
    "result": "EP4 antagonist"
  },
  {
    "structure-as-smiles": "O=C(O)CCc1cccc(NC(=O)c2ccc(-c3cccc(Cl)c3)o2)c1",
    "tested-system": "human EP4 prostanoid receptors (Homo sapiens, UniProt P35408)",
    "result": "EP4 Antagonist"
  },
  {
    "structure-as-smiles": "O=C(O)Cc1cccc(NC(=O)c2ccc(-c3cc(Cl)cc(Cl)c3)o2)c1",
    "tested-system": "human EP4 prostanoid receptors (Homo sapiens, UniProt P35408)",
    "result": "EP4 antagonist"
  },
  {
    "structure-as-smiles": "O=C(O)/C=C/c1cccc(NC(=O)c2cccc(-c3ccccc3)n2)c1",
    "tested-system": "human EP4 prostanoid receptors (Homo sapiens, UniProt P35408)",
    "result": "EP4 Agonist"
  },
  {
    "structure-as-smiles": "O=C(O)Cc1cccc(NC(=O)c2cccc(-c3cccc(Cl)c3)n2)c1",
    "tested-system": "human EP4 prostanoid receptors (Homo sapiens, UniProt P35408)",
    "result": "EP4 Antagonist"
  },
  {
    "structure-as-smiles": "O=C(O)Cc1cccc(NC(=O)c2cccc(-c3cc(Cl)cc(Cl)c3)n2)c1",
    "tested-system": "human EP4 prostanoid receptors (Homo sapiens, UniProt P35408)",
    "result": "EP4 Antagonist"
  },
  {
    "structure-as-smiles": "O=C(O)/C=C/c1cccc(NC(=O)c2ccc(-c3cccc(Cl)c3)o2)c1",
    "tested-system": "human EP4 prostanoid receptors (Homo sapiens, UniProt P35408)",
    "result": "EP4 antagonist"
  },
  {
    "structure-as-smiles": "O=C(O)c1ccc(CNC(=O)c2ccc(-c3ccccc3)o2)cc1",
    "tested-system": "human EP4 prostanoid receptors (Homo sapiens, UniProt P35408)",
    "result": "EP4 antagonist"
  },
  {
    "structure-as-smiles": "O=C(O)COc1cccc(NC(=O)c2cccc(-c3cccc(Cl)c3)n2)c1",
    "tested-system": "human EP4 prostanoid receptors (Homo sapiens, UniProt P35408)",
    "result": "EP4 Agonist"
  },
  {
    "structure-as-smiles": "O=C(O)/C=C/c1cccc(NC(=O)c2ccc(-c3ccccc3)o2)c1",
    "tested-system": "human EP4 prostanoid receptors (Homo sapiens, UniProt P35408)",
    "result": "EP4 agonist"
  }
]

Request: Check the records and state activity (EP4 part) for O=C(O)CCc1cccc(NC(=O)c2ccc(-c3cc(Cl)cc(Cl)c3)o2)c1
Result: EP4 Antagonist

Request: Check the records and state activity (EP4 part) for O=C(O)COc1cccc(NC(=O)c2ccc(-c3cccc(Cl)c3)o2)c1
Result: EP4 agonist

* * *

Form field: Ki (one value per entry).
molecular target: human EP4 receptor (Homo sapiens); construct: expressed in transfected cells; assay: Binding ability to human EP receptors ([3H]PGE2 displacement), EP4; conditions: membranes expressing human EP4; [3H]PGE2 1 nM; Cheng-Prusoff; read-out: pKi (M) EP4 (converted)

[
  {
    "structure-as-smiles": "O=C(O)Cc1cccc(NC(=O)c2ccc(-c3cc(F)cc(F)c3)o2)c1",
    "tested-system": "human EP4 receptor (Homo sapiens)",
    "result": "> 1e-05 M"
  },
  {
    "structure-as-smiles": "O=C(O)COc1cccc(NC(=O)c2cccc(-c3cc(Cl)cc(Cl)c3)n2)c1",
    "tested-system": "human EP4 receptor (Homo sapiens)",
    "result": "< 1e-06 M"
  },
  {
    "structure-as-smiles": "O=C(O)Cc1cccc(NC(=O)c2cc(-c3cccc(F)c3)ccc2F)c1",
    "tested-system": "human EP4 receptor (Homo sapiens)",
    "result": "> 1e-05 M"
  },
  {
    "structure-as-smiles": "O=C(O)COc1cccc(NC(=O)c2ccc(-c3ccc(Cl)cc3)o2)c1",
    "tested-system": "human EP4 receptor (Homo sapiens)",
    "result": "> 1e-05 M"
  },
  {
    "structure-as-smiles": "O=C(Nc1cccc(OCc2nnn[nH]2)c1)c1cccc(-c2ccccc2)n1",
    "tested-system": "human EP4 receptor (Homo sapiens)",
    "result": "< 1e-06 M"
  }
]

Request: Check the records and state Ki for O=C(Nc1cccc(Cc2nnn[nH]2)c1)c1ccc(-c2cccc(Cl)c2)o1
Result: > 1e-05 M

Request: Check the records and state Ki for O=C(O)Cc1cccc(NC(=O)c2cc(-c3ccccc3)ccc2F)c1
Result: > 1e-05 M

Request: Check the records and state Ki for O=C(O)/C=C/c1cccc(NC(=O)c2cccc(-c3ccc(F)cc3)n2)c1
Result: > 1e-05 M

Request: Check the records and state Ki for O=C(O)Cc1cccc(NC(=O)c2ccc(-c3ccccc3Cl)o2)c1
Result: > 1e-05 M

Request: Check the records and state Ki for O=C(O)COc1cccc(NC(=O)c2ccc(-c3ccc(F)cc3)o2)c1
Result: > 1e-05 M
